Assign log10 EC50 at 60 min to each entry below.
# Protocol Details: Induction of ROS generation assessed as generation of H2O2 measured as oxidation of phenol red after 60 mins by phenol red assay
# Assay type: physicochemical
The base-10 logarithm of EC50 at 60 min, taken with EC50 at 60 min in µM, is what appears here.

What value of measured log10 EC50 at 60 min is listed for `Cn1nc(/C=C/c2ccccc2)nc2c(=O)n(C)c(=O)nc1-2` ?
0.00

Given the compound `O=c1[nH]c(=O)c2nccnc2[nH]1` , what is its reported log10 EC50 at 60 min?
2.85

Return reported log10 EC50 at 60 min; argument: `Cn1nc(-c2ccncc2)nc2c(=O)n(C)c(=O)nc1-2`
0.00

What log10 EC50 at 60 min value was documented for this compound, `Cn1ncnc2c(=O)n(C)c(=O)nc1-2` ?
0.00

Which measured log10 EC50 at 60 min value corresponds to `Cn1nc(/C=C\c2ccccc2)nc2c(=O)n(C)c(=O)nc1-2` ?
0.00

Which log10 EC50 at 60 min reading was recorded for the compound CC1=CC(=O)c2ccccc2C1=O [MENADIONE] ?
1.46

I would be grateful if you could share the reported log10 EC50 at 60 min for `Cn1nc(-c2cccs2)nc2c(=O)n(C)c(=O)nc1-2` .
0.30

Please report the recorded log10 EC50 at 60 min for `CCCc1nc2c(=O)n(C)c(=O)nc-2n(C)n1` .
0.00

Which value of log10 EC50 at 60 min has been reported for `O=C1NC(=O)/C(=C\c2ccncc2)C2=C1CCCC2` in the records?
1.98

Find the recorded log10 EC50 at 60 min belonging to `O=C1NC(=O)/C(=C\c2ccco2)C2=C1CCCC2` and report it.
1.26

Query (compound): C[n+]1cc2c3c(ccc2c2ccc4cc5c(cc4c21)OCO5)OCO3 [SANGUINARIUM] ; field requested: log10 EC50 at 60 min
2.71

Suppose we examine the compound `O=C1NC(=O)/C(=C\c2ccccc2)C2=C1CCC2` ; what log10 EC50 at 60 min value has been reported?
2.37

Entry under review: `Cc1cc(C)n(C)c2cccc(=O)c1-2` . Reported log10 EC50 at 60 min?
1.52

Can you look up the measured log10 EC50 at 60 min of `Cn1nc(-c2cccnc2)nc2c(=O)n(C)c(=O)nc1-2` for me?
0.00

Item under review: `Cn1nc(-c2ccccc2)nc2c(=O)n(C)c(=O)nc1-2` . Reported log10 EC50 at 60 min?
0.30

What value of log10 EC50 at 60 min has been recorded for this entry: O=c1nc2[nH]c3ccccc3nc-2c(=O)[nH]1 [ALLOXAZINE]
2.35

# input compound: `COc1cc(/C=C2\C(=O)NC(=O)C3=C2CCCC3)cc(OC)c1OC` ; wanted: its log10 EC50 at 60 min
-0.30

Which log10 EC50 at 60 min value is on record for `O=C1NC(=O)/C(=C\c2ccc(O)cc2)C2=C1CCCC2` ?
0.93

// returns reported log10 EC50 at 60 min for input `CCCCCc1ccc(/C=C2\C(=O)NC(=O)C3=C2CCCC3)cc1`
0.96

Fill in: log10 EC50 at 60 min of `NC(=O)N1C(=O)/C(=C(\O)c2ccc(F)s2)c2cc(F)c(Cl)cc21` is ___
2.92

Item `Nc1ccc2nc3c(=O)[nH]c(=O)nc-3[nH]c2c1` has what recorded log10 EC50 at 60 min?
2.04

Can you share its log10 EC50 at 60 min? I mean this compound: `Cn1c(=O)nc2sc3ccccc3nc-2c1=O`
2.18

====

Give measured pEC50 for each item. Keep answers brief.
# Protocol Details: Cytotoxicity against human THLE cells assessed as ATP depletion after 4 hrs by CellTitre-Glo assay
# Assay type: functional, cell-based
The meaning of pEC50 here: minus log10 of the concentration in molar units.

Look up pEC50 for this compound: `COc1cccc2c1C(=O)c1c(O)c3c(c(O)c1C2=O)C[C@@](O)(C(=O)CO)C[C@@H]3O[C@H]1C[C@H](N)[C@H](O)[C@H](C)O1`
3.67

Any idea what its pEC50 is? The compound is `Cn1nc(-c2ccccc2)nc2c(=O)n(C)c(=O)nc1-2`
5.05

Field request: pEC50 | item: `Cn1nc(/C=C\c2ccccc2)nc2c(=O)n(C)c(=O)nc1-2`
5.32

Data request, read-out pEC50, for `CCCc1nc2c(=O)n(C)c(=O)nc-2n(C)n1`
4.78

Fill blank: measured pEC50 of the compound `CCOc1ccc2nc3c(=O)n(C)c(=O)nc-3sc2c1` is ____.
4.34

// pEC50 lookup, key: `Cn1c(=O)nc2sc3ccccc3nc-2c1=O`
4.97

Reported pEC50, compound `Cn1nc(/C=C/c2ccccc2)nc2c(=O)n(C)c(=O)nc1-2` : ____
5.89

Which pEC50 reading was recorded for the compound `CC1=CC(=O)c2ccccc2C1=O` ?
4.03

====

# Protocol Details: Induction of ROS generation assessed as generation of H2O2 measured as oxidation of phenol red after 60 mins by phenol red assay
# Format: physicochemical
Field 'label' (enum: MET / NOT MET). Set to MET when EC50 at 60 min is strictly under 50 µM; else NOT MET.

Lab note: confirm whether the reported EC50 at 60 min for this molecule is below 50 µM, equality not counting. molecule: `CCOc1ccc2nc3c(=O)n(C)c(=O)nc-3sc2c1`
NOT MET

Consider the molecule `O=C1NC(=O)/C(=C\c2ccc(Cl)cc2Cl)C2=C1CCCC2` . Is its EC50 at 60 min strictly less than 50 µM?
NOT MET

EC50 at 60 min strictly < 50 µM for this molecule? `COc1ccc(-c2nc3c(=O)n(C)c(=O)nc-3n(C)n2)cc1`
MET

I wonder whether `CC1=C(C)C(=O)c2ccccc2C1=O` has EC50 at 60 min below 50 µM. Can you tell?
NOT MET

Given O=C1NC(=O)/C(=C\c2ccccc2)C2=C1CCCC2 [TESIMIDE] , is recorded EC50 at 60 min strictly lower than 50 µM?
MET

Quick check: EC50 at 60 min of `O=C1NC(=O)/C(=C\c2ccc(C(=O)O)cc2)C2=C1CCCC2` under 50 µM?
NOT MET

Strictly below 50 µM: is that where EC50 at 60 min of `O=C1NC(=O)/C(=C\c2ccc(Cl)cc2)C2=C1CCCC2` sits?
MET

I wonder whether `CC(=O)N/C=C1/C(=O)NC(=O)C(C#N)=C1C` has EC50 at 60 min below 50 µM. Can you tell?
NOT MET

====

# Protocol Details: Cytotoxicity against human THLE cells assessed as ATP depletion after 4 hrs by CellTitre-Glo assay
# Format: functional, cell-based
Measured Property: EC50 (µM)
Express your answer in µM, writing the number without its unit.

Need EC50 of `Cn1nc(-c2cccs2)nc2c(=O)n(C)c(=O)nc1-2` , thanks.
2.4

Fill blank: measured EC50 of the compound `Cn1nc(-c2cccnc2)nc2c(=O)n(C)c(=O)nc1-2` is ____.
5.2

Need EC50 of `COc1ccc(-c2nc3c(=O)n(C)c(=O)nc-3n(C)n2)cc1` , thanks.
9.6

Give its EC50 value. Item: `O=C1C=C(Cl)C(=O)c2ccccc21`
21.1

Entry `Nc1ccc2nc3c(=O)[nH]c(=O)nc-3[nH]c2c1` has what EC50?
264

Quick one: EC50 for `Cn1ncnc2c(=O)n(C)c(=O)nc1-2` ?
2.7

Fill in: EC50 of `CC1=C(C)C(=O)c2ccccc2C1=O` is ___
40.9

====

# Protocol Details: Induction of ROS generation assessed as generation of H2O2 measured as oxidation of phenol red after 60 mins by phenol red assay
# Format: physicochemical
I'd appreciate it if you could supply EC50 at 60 min values for the items below.
Kindly answer with a numeric value in µM, unit omitted.

Quick check: EC50 at 60 min of `O=C1NC(=O)/C(=C\c2ccc(C3CCCCC3)cc2)C2=C1CCCC2` ?
121

What value of EC50 at 60 min has been reported for the following compound? `Cc1cc2nc3c(=O)[nH]c(=O)nc-3n(C[C@H](O)[C@H](O)[C@H](O)CO)c2cc1C`
129

For the compound shown here, `Cn1nc(-c2ccc([N+](=O)[O-])cc2)nc2c(=O)n(C)c(=O)nc1-2` , give the reported EC50 at 60 min.
1

Requested read-out: EC50 at 60 min. Entry: `Cc1c2cc3c(ccc4ccccc43)oc-2nc(=O)c1C#N`
11

Would you mind telling me what EC50 at 60 min value was observed for `COc1cccc2c1C(=O)c1c(O)c3c(c(O)c1C2=O)C[C@@](O)(C(=O)CO)C[C@@H]3O[C@H]1C[C@H](N)[C@H](O)[C@H](C)O1` ?
179

Entry `O=C1NC(=O)/C(=C\c2ccc(F)cc2)C2=C1CCCC2` : reported EC50 at 60 min = ?
60

Request the reported EC50 at 60 min associated with `O=C1C=C(Cl)C(=O)c2ccccc21`
2.5

Entry under review: `NC(=O)N1C(=O)/C(=C(\O)c2ccc(Cl)s2)c2cc(Cl)ccc21` . Reported EC50 at 60 min?
667
